test system: PPARg:RXRa (NR concentration 180 nM, RXRa partner concentration 90 nM); assay: PBM binding z-score (relative to random genomic background probes); higher = stronger binding; sequences stand for … in GC…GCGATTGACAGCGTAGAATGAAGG
Reported PBM binding z-score values for the following sequences.
testReadout: PBM binding z-score

1. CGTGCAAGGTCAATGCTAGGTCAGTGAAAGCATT    4.26
2. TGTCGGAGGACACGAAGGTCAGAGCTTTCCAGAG    0.574
3. TTACCAAGGTGTGCTGAGGTCGTTGATCCAACTC    -0.381
4. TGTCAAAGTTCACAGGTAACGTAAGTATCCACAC    8.64
5. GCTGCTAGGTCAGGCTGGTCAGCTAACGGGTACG    0.457
6. ACTTACCGGTCAACGAGGTTATAGCACGCGTATA    1.3
